target: human PD-L1 (Homo sapiens (Human)); test: T cell activation luciferase reporter cell culture system (T Cell Activation Assay); type: cell-based; conditions: luciferase reporter assay; PD-L1 aAPC/CHO-K1 cells with PD-1 effector Jurkat T cells
Sequence (Q9NZQ7 19-290): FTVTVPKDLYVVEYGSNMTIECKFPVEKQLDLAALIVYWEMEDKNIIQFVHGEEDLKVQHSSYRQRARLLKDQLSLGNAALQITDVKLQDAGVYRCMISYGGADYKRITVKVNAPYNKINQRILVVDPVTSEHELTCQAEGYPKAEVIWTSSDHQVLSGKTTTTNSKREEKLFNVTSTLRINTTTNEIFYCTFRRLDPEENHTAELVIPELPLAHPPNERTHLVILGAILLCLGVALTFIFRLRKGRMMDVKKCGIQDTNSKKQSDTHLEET
quantity.kind: EC50
Don't forget the unit after the value.

Below, 2 molecules whose answers are already recorded.
COc1cc(-c2nccc(-c3cccc(-c4ccc(CN5CCC(O)CC5)c(OC)n4)c3Cl)c2Cl)ccc1CN1CC2(CCN(C(C)=O)C2)C1    26.1 nM
COc1nc(-c2cccc(-c3ccnc(-c4ccc5c(CN(C)C6CCN(C(C)=O)CC6)nn(C)c5c4)c3Cl)c2Cl)ccc1CNC[C@@H]1CCC(=O)N1    12.5 nM

Let us examine a further case.
Lookup result for COc1nc(-c2cccc(-c3ccnc(-c4cc(F)c5c(c4)CCN(C[C@@H]4CCC(=O)N4)C5)c3Cl)c2Cl)ccc1CNC[C@@H]1CCC(=O)N1 ; measured EC50: 75.5 nM

----------
molecular target: human PD-L1 (Homo sapiens (Human)); assay: T cell activation luciferase reporter cell culture system (T Cell Activation Assay); assay type: cell-based; settings: luciferase reporter assay; PD-L1 aAPC/CHO-K1 cells with PD-1 effector Jurkat T cells
quantity.kind: EC50 (nM)
Write the value in nM as a bare number.

COc1cc(-c2nccc(-c3cccc(-c4ccc(CNC[C@@H]5CCC(=O)N5)c(OC)n4)c3Cl)c2Cl)cc2c1CN(CCC1(O)CC1)CC2 [Cmpd 74]    70
CNCc1ccc(C(=O)Nc2cccc(-c3ccnc(-c4ccc(CNC)c(OC)c4)c3Cl)c2C)nc1 [Example 696]    244

// switching to the query compound
// EC50 value for COc1cc(-c2ccnc(-c3cccc(-c4ccc(CN5CC6(CNC(=O)C6)C5)c(OC)n4)c3Cl)c2Cl)ccc1CN1CC2(CNC(=O)C2)C1 [Example 622] : 216

----------
biological target: PD-L1 His protein / PD-1 Fc protein (Homo sapiens (Human), UniProt Q9NZQ7); assay: HTRF Assay (PD-1/PD-L1 interaction); assay type: binding; conditions: PD-L1 His 6 nM, PD-1 Fc 6 nM
Sequence (Q9NZQ7 19-238): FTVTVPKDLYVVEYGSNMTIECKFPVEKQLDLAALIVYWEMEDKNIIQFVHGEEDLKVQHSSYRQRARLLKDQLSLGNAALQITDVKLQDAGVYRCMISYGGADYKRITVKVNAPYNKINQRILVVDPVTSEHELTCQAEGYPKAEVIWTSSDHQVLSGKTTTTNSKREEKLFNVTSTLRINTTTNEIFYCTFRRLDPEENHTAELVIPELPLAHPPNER
Quick reference: IC50 of the listed items.
# unit: nM | format: bare number

// below: answered compounds
CNCc1ccc(-c2nccc(-c3cccc(-c4ccc(CNC)c(OC)n4)c3Cl)c2Cl)cc1OC [Compound 136]    0.708
COc1cc(-c2nccc(-c3cccc(-c4cn5cc(CNC[C@@H]6CCC(=O)N6)nc5cn4)c3Cl)c2Cl)ccc1CNC[C@@H]1CCC(=O)N1 [Example 291]    1.41
COc1nc(-c2cccc(-c3ccnc(-c4ccc(CNC[C@@H]5CCC(=O)N5)c(OC)n4)c3Cl)c2Cl)ccc1CNC[C@@H]1CCC(=O)N1 [Compound 630]    0.17
COc1cc(-c2nccc(-c3cccc(-c4ccc5c(CNC6CCOCC6)cn(C)c5n4)c3Cl)c2Cl)ccc1CN1CC2(CNC(=O)C2)C1 [Compound 605]    0.34
COc1nc(-c2cccc(-c3ccnc(-c4ccc5c(c4)CN(CCNC[C@@H]4CCC(=O)N4)C5=O)c3Cl)c2Cl)ccc1CNC[C@H](C)O [Compound 142]    6.66

Now for the compound whose IC50 we want.
Form field IC50 for item COc1nc(-c2cccc(-c3nccc(-c4ccc(CN5CCC(O)CC5)c(OC)n4)c3Cl)c2Cl)ccc1CNC1CCN(C(C)=O)CC1 [Example 761] on PD-L1 His protein / PD-1 Fc protein (Homo sapiens (Human), UniProt Q9NZQ7): 0.87

----------
Form field: IC50 (one value per entry).
biological target: PD-L1 His protein / PD-1 Fc protein (Homo sapiens (Human)); test: HTRF Assay (PD-1/PD-L1 interaction); type: binding; conditions: PD-L1 His 6 nM, PD-1 Fc 6 nM
Output spec: scalar in nM, unitless text.

Reference set (5 entries):
COc1nc(-c2cccc(-c3nccc(-c4ccc(CNC5CCN(C(C)=O)CC5)c(OC)n4)c3Cl)c2Cl)ccc1CN1CCC(O)CC1    1.46
COc1cc(-c2nccc(-c3cccc(NC(=O)c4ccc(CNCCO)cn4)c3C)c2Cl)cc(F)c1CNCCO    0.75
COc1cc(CNC2CCN(C(C)=O)CC2)cc(-c2nccc(-c3cccc(-c4ccc(CNC5CCN(C(C)=O)CC5)c(OC)n4)c3Cl)c2Cl)c1    8.73
COc1nc(-c2cccc(-c3ccnc(-c4cc(OC)c5nc(CN6CC7(C6)CN(C(C)=O)C7)cn5c4)c3Cl)c2Cl)ccc1CNC[C@@H]1CCC(=O)N1    0.767
COc1cc(-c2nccc(-c3cccc(-c4ccc5c(CNC6CCOCC6)cn(C)c5n4)c3Cl)c2Cl)ccc1CN1CC2(C1)CN(C(C)=O)C2    0.22

Shifting focus to the molecule that follows.
Entry COc1cc(-c2nccc(-c3cccc(NC(=O)c4cn(C)c(=O)n(C)c4=O)c3Cl)c2Cl)ccc1CNC[C@@H]1CCC(=O)N1 — recorded IC50 = 0.14

----------
molecular target: human PD-L1 (Homo sapiens (Human)); test: T cell activation luciferase reporter cell culture system (T Cell Activation Assay); format: cell-based; settings: luciferase reporter assay; PD-L1 aAPC/CHO-K1 cells with PD-1 effector Jurkat T cells
log10 EC50 values by entry
Values reflect log10 of reported EC50 (nM).

These recorded examples may help you get a feel for the data.
COc1cc(-c2nccc(-c3cccc(-c4ccc(CN5CC(C)(O)C5)c(OC)n4)c3Cl)c2Cl)ccc1CN1CC2(CNC(=O)C2)C1    0.99
COc1nc(N[C@H]2CCc3c(-c4nccc(-c5ccc6c(CNC[C@@H]7CCC(=O)N7)cn(C)c6n5)c4Cl)cccc32)c(C(F)(F)F)nc1CNC[C@@H]1CCC(=O)N1    2.16
COc1nc(-c2cccc(-c3ccnc(-c4ccc(CN5CC6(C5)CN(C(C)=O)C6)c(OC(F)F)c4)c3Cl)c2Cl)ccc1CN1CC2(C1)CN(C(C)=O)C2    1.57

// recorded log10 EC50 for COc1cc(-c2nccc(-c3cccc(-c4ccc(CN(C)C[C@@H]5CCC(=O)N5)c(OC)n4)c3Cl)c2Cl)ccc1CN(C)C[C@@H]1CCC(=O)N1 : 1.50

// log10 EC50 value for COc1cc(-c2nccc(-c3cccc(-c4ccc5c(CNC6CCS(=O)(=O)CC6)cn(C)c5n4)c3Cl)c2Cl)ccc1CNC[C@@H]1CCC(=O)N1 : 1.65

Per the record, COc1cc(-c2nccc(-c3cccc(-c4ccc(CN(C)C5CCOCC5)c(OC)n4)c3Cl)c2Cl)ccc1CNC1CCN(C(C)=O)CC1 has log10 EC50 of 2.13

Looking up COc1nc(-c2cccc(-c3ccnc(-c4ccc(CNC5CCOCC5)c(OC(F)F)c4)c3Cl)c2Cl)ccc1CN1CC2(C1)CN(C(C)=O)C2 , I found its log10 EC50 recorded as 1.57

Just so you know, measured log10 EC50 for COc1cc(-c2nccc(-c3cccc(-c4ccc(CNC5CCN(C(C)=O)CC5)c(OC)n4)c3Cl)c2Cl)ccc1CNCCCF came out at 1.62

Per the records, this molecule ( COc1nc(-c2cccc(-c3ccnc(-c4ccc(CNC5CCN(C(C)=O)CC5)c(OC)n4)c3Cl)c2Cl)ccc1CNC1CCN(C(C)=O)CC1 ) has log10 EC50 equal to 1.64

----------
target: UniProt Q9NZQ7; experiment: T cell activation luciferase reporter cell culture system (T Cell Activation Assay); format: cell-based; conditions: luciferase reporter assay; PD-L1 aAPC/CHO-K1 cells with PD-1 effector Jurkat T cells
quantity.kind: pEC50
Answer as the number alone; pEC50 is minus log10 of concentration in mol/L.

Please fill in: pEC50 reported for COc1cc(-c2nccc(-c3cccc(-c4ccc(CN[C@H]5C[C@](C)(O)C5)c(OC)n4)c3Cl)c2Cl)ccc1CN1CC2(CNC(=O)C2)C1 = 7.77

Recorded result, CN1CCNCc2ccc(-c3nccc(-c4cccc(-c5ccc6c(CNC[C@@H]7CCC(=O)N7)cn(C)c6n5)c4Cl)c3Cl)cc21 , pEC50: 6.67

The reported pEC50 of the compound COc1nc(-c2ccnc(-c3cccc4c3CC[C@@H]4Oc3nc(OC)c(CNC[C@@H]4CCC(=O)N4)cc3C(F)(F)F)c2Cl)ccc1CNC1CCOCC1 was 7.96

For this compound ( CNCc1ccc(-c2nccc(-c3cccc(-c4ccc(CNC)c(OC)n4)c3Cl)c2Cl)cc1F ), measured pEC50 is 7.44

Note to self: pEC50 recorded for COc1nc(O[C@H]2CCc3c(-c4nccc(-c5ccc6c(CNC[C@@H]7CCC(=O)N7)cn(C)c6n5)c4Cl)cccc32)c(C(F)(F)F)cc1CNC[C@@H]1CCC(=O)N1 was 7.67

Looking up COc1cc(-c2ncnc(-c3cccc(-c4ccc(CN[C@H]5C[C@H](O)C5)c(OC)n4)c3Cl)c2Cl)ccc1CN[C@H]1C[C@H](O)C1 , I found its pEC50 recorded as 6.98

// field: pEC50; key: COc1nc(-c2cccc(-c3ccnc(-c4ccc(CNC5CCN(C(C)=O)CC5)c(F)c4)c3Cl)c2Cl)ccc1CNC1CCN(C(C)=O)CC1 ; value = 7.07

Per the record, COc1cc(-c2nccc(-c3ccnc(-c4cc(F)c(CNC[C@@H]5CCC(=O)N5)c(OC)c4)c3Cl)c2Cl)cc(F)c1CNC[C@@H]1CCC(=O)N1 has pEC50 of 7.17
